Test system: SK-OV-3
Test: NCI tumour cell line growth inhibition, 48 h
The source made the active and inactive calls. No stated cut-off is given here; in the data, active = GI50 up to about 1.1 µM and inactive = higher.
In this exercise, the only acceptable responses are T for active, F for inactive

Input: Status in this test for CN(N)C(=O)NCCCl ?
Output: F

Input: Test call for this compound, please: O=C(CC1(O)C(=O)Nc2ccccc21)c1ccc(O)cc1O (centres undefined)
Output: F

Input: Assay outcome for Cc1cc2c(cc1Cl)SC(NNC(=O)c1ccncc1)=NS2(=O)=O : what was it?
Output: F

Input: Look up the recorded call for CC(=O)CC(=O)/C=C/c1cccs1 in this test.
Output: F

Input: Tell me the recorded outcome of this test for C=C1C(=O)OC2/C=C(\C)CC/C=C(\C)CC(OC(=O)/C(=C/CO)CO)[C@@H]12 (some centres undefined) .
Output: F

Input: // outcome(item) with item = O=P(O)(CCP(=O)(O)c1ccccc1)c1ccccc1
Output: F

Input: Per the records of this test, what outcome belongs to CC(C)=CCC/C(C)=C/CC/C(C)=C/CC/C(C)=C/CC/C(C)=C\CC/C(C)=C/CC/C(C)=C/CC/C(C)=C/Cc1cc(O)ccc1O ?
Output: F

Input: Could you kindly confirm the outcome this assay logged for O=C1C(CN2CCCC2)CCC1CN1CCCC1 (centres undefined) ?
Output: F

Input: Recorded test outcome, item CC[C@]12C=CCN3CCC4(c5cc([C@@]6(C(=O)OC)CC7CN(CCc8c6[nH]c6ccccc86)C[C@@H]6CCC[C@H]76)c(OC)cc5N(C)C4[C@](O)(C(=O)OC)C1OC(C)=O)C32 (some centres undefined)
Output: T

Input: Each compound tested received a call. Report the one for CC1CNC(NS(=O)(=O)c2cc(C(=O)Nc3ccccc3)c(Cl)cc2S)=NN1 (centres undefined) .
Output: F

Input: How was CSc1nc2c(ncn2C2OCC(O)C(O)C2O)c(=O)[nH]1 (centres undefined) classified in this test?
Output: F

Input: Which outcome did this test record for the compound NCCCSCC(=O)O ?
Output: F

Input: Hi team, can someone confirm the assay call for CC(C)CC1NC(=O)CCC(NC(=O)C(Cc2ccc(O)cc2)NC(=O)OCc2ccccc2)C(=O)NC(Cc2ccccc2)C(=O)NC(Cc2ccccc2)NC1=O (centres undefined) ?
Output: T

Input: State the result this test recorded for O=c1c(C(c2ccccc2)c2c(O)oc3cc(O)ccc3c2=O)c(O)oc2cc(O)ccc12 .
Output: F

Input: Called result for CC(C)C(/C=C/c1ccc(Cl)cc1)=N\NC(=S)NN
Output: F

Input: Identify the outcome logged in this assay for the compound shown: O=C(O)CCSCc1ccc(I)cc1
Output: F

Input: What outcome does the record of this test show for CC(=O)OCC1OC(OCCCOP(=O)(OCCC#N)OCC2OC(n3cnc4c(N)ncnc43)C(OC(=O)c3ccccc3)C2OC(=O)c2ccccc2)C(OC(C)=O)C(OC(C)=O)C1OC(C)=O (centres undefined) ?
Output: F

Input: For COc1ccc(C2=NN=C3C(c4ccccc4)=Nc4ccccc4N3C2)cc1 , which call appears in the assay record?
Output: F

Input: Each compound tested received a call. Report the one for C=[N+](CNC(=O)CNC(=O)C(Cc1ccc([N+](=O)[O-])cc1)NC(=O)OC(C)(C)C)C(=O)CNC(=O)C(Cc1ccc([N+](=O)[O-])cc1)NC(=O)OC(C)(C)C (centres undefined) .
Output: F
